# MEASUREMENT TARGET: CYP2E1 (Rattus norvegicus)
# Sequence (P05182 whole entry): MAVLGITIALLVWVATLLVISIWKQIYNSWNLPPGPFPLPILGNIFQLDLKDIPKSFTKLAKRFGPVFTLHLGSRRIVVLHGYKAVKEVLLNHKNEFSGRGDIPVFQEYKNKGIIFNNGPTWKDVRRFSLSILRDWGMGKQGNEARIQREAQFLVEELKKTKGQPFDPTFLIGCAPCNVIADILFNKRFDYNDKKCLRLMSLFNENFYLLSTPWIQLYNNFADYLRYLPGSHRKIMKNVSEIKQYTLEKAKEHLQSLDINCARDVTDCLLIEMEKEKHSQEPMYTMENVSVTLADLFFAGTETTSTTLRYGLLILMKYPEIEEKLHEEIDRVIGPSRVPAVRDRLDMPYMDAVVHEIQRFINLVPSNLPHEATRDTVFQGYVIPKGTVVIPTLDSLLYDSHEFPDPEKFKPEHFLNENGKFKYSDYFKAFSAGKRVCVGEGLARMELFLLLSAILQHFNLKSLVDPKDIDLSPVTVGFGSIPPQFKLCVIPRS
# METHOD: Inhibition of CYP2E1 in rat liver microsomes assessed as remaining activity at 100 uM measured after 30 mins by LC-MS/MS analysis
# Type: ADME, Microsome
# CONDITIONS: read-out: Activity
VALUE KIND: activity at 0.5 h, 100 µM

Query: Need activity at 0.5 h, 100 µM of COc1cc(/C=N/Nc2nnc3n2N=C(c2ccccc2)CS3)cc(OC)c1O , thanks.
Reply: 92.6%

----------
# METHOD: Cytotoxicity against human HEK293 cells assessed as cell viability at 100 uM measured after 24 hrs by MTT assay relative to control
# Format: toxicity, cell-based
# CONDITIONS: read-out: Activity
VALUE KIND: viability at 24 h, 100 µM (%)
Give the value, in units of %, as a plain number.

Query: Need viability at 24 h, 100 µM of COc1cc(/C=N/Nc2nnc3n2N=C(c2ccccc2)CS3)cc(OC)c1O , thanks.
Reply: 90.5

----------
# Test system: CYP2D6
# METHOD: Inhibition of CYP2D6 in rat liver microsomes assessed as remaining activity at 100 uM measured after 30 mins by LC-MS/MS analysis
# Type: ADME, Microsome
# CONDITIONS: read-out: Activity
VALUE KIND: activity at 0.5 h, 100 µM

Query: Need activity at 0.5 h, 100 µM of COc1cc(/C=N/Nc2nnc3n2N=C(c2ccccc2)CS3)cc(OC)c1O , thanks.
Reply: 92.3%

----------
# METHOD: Cytotoxicity against human HEK293 cells assessed as cell viability at 50 uM measured after 24 hrs by MTT assay relative to control
# Type: toxicity, cell-based
# CONDITIONS: read-out: Activity
VALUE KIND: viability at 24 h, 50 µM (%)
Give the value, in units of %, as a plain number.

Query: Need viability at 24 h, 50 µM of COc1cc(/C=N/Nc2nnc3n2N=C(c2ccccc2)CS3)cc(OC)c1O , thanks.
Reply: 100

----------
# System: CYP2C9
# METHOD: Inhibition of CYP2C9 in rat liver microsomes assessed as remaining activity at 100 uM measured after 30 mins by LC-MS/MS analysis
# Assay type: ADME, Microsome
# CONDITIONS: read-out: Activity
VALUE KIND: activity at 0.5 h, 100 µM (%)
Give the value, in units of %, as a plain number.

Query: Need activity at 0.5 h, 100 µM of COc1cc(/C=N/Nc2nnc3n2N=C(c2ccccc2)CS3)cc(OC)c1O , thanks.
Reply: 90.7

----------
# MEASUREMENT TARGET: Alpha-glucosidase (Saccharomyces cerevisiae S288c, UniProt P53341+P38158+P07265)
# METHOD: Inhibition of Saccharomyces cerevisiae alpha-glucosidase using nitrophenol-alpha-D-glucopyranoside (pNPG) as substrate incubated for 15 mins
# Type: protein assay
Classify: 1 when IC50 is strictly less than 90 µM; 0 when IC50 is not.

Some solved entries appear below for comparison.
Oc1ccc(/C=N/Nc2nnc3n2N=C(c2ccccc2)CS3)cc1 | 0
Fc1ccc(/C=N/Nc2nnc3n2N=C(c2ccccc2)CS3)cc1 | 1
COc1ccccc1/C=N/Nc1nnc2n1N=C(c1ccccc1)CS2 | 0
COc1cc(/C=N/Nc2nnc3n2N=C(c2ccccc2)CS3)cc(OC)c1O | 1
CN(C)c1ccc(/C=N/Nc2nnc3n2N=C(c2ccccc2)CS3)cc1 | 1
Oc1cccc(/C=N/Nc2nnc3n2N=C(c2ccccc2)CS3)c1 | 0
COc1ccc(/C=N/Nc2nnc3n2N=C(c2ccccc2)CS3)cc1 | 1
Fc1ccccc1/C=N/Nc1nnc2n1N=C(c1ccccc1)CS2 | 0
Clc1ccccc1/C=N/Nc1nnc2n1N=C(c1ccccc1)CS2 | 1
Oc1ccccc1/C=N/Nc1nnc2n1N=C(c1ccccc1)CS2 | 1

Query: Identify whether the compound COc1ccc(/C=N/Nc2nnc3n2N=C(c2ccccc2)CS3)cc1OC records IC50 below 90 µM.
Reply: 0

Query: And then Brc1ccccc1/C=N/Nc1nnc2n1N=C(c1ccccc1)CS2 , what is it?
Reply: 1

Query: And then Clc1cccc(/C=N/Nc2nnc3n2N=C(c2ccccc2)CS3)c1 , what is it?
Reply: 1

Query: And then Oc1ccc(/C=N/Nc2nnc3n2N=C(c2ccccc2)CS3)c(O)c1 , what is it?
Reply: 1
